Values from ChEMBL document CHEMBL4619731

# target_or_system: Transient receptor potential cation channel subfamily A member 1 (Homo sapiens) (UniProt O75762)
# Sequence (O75762 whole entry): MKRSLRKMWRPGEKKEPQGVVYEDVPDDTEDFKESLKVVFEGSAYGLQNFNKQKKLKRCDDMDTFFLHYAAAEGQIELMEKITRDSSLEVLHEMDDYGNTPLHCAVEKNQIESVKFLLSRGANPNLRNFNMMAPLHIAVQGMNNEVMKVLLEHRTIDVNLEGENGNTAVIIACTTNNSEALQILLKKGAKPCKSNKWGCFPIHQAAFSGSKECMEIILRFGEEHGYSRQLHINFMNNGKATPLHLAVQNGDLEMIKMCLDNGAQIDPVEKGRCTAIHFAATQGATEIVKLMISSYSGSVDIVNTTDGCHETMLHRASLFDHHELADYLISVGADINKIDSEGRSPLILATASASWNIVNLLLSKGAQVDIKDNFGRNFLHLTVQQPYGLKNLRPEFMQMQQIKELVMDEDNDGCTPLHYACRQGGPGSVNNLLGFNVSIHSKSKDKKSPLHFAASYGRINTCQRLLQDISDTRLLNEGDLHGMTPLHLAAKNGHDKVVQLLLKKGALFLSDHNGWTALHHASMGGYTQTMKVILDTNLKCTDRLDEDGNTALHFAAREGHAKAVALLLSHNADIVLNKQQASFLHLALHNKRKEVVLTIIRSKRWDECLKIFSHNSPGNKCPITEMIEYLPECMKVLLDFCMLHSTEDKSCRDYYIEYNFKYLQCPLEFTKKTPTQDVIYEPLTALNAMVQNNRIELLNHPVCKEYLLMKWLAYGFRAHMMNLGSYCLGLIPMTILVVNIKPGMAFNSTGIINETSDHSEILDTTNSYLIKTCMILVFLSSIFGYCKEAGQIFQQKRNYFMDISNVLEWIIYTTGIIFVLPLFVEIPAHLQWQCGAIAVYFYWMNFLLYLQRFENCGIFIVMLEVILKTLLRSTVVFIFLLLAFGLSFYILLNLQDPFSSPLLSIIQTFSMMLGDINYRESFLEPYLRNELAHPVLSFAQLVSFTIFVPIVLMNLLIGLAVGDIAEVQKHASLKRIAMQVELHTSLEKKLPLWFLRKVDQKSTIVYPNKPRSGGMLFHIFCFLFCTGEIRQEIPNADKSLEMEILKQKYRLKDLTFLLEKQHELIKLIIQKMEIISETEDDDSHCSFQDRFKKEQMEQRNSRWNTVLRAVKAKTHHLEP
# method_notes: Agonist activity at TRPA1 (unknown origin) at 1000 uM relative to AITC
Note to self: Activity under 20% means fulfilled, ties and anything higher get not fulfilled.

Task: I wonder whether CCCC(=O)OCC(C)C has Activity below 20%. Can you tell?
Output: fulfilled

Task: I wonder whether CCCC(=O)OCCc1ccccc1 has Activity below 20%. Can you tell?
Output: not fulfilled

Task: I wonder whether CCCCCCCCC(=O)OC has Activity below 20%. Can you tell?
Output: not fulfilled

Task: I wonder whether O=c1cc(-c2ccc(O)cc2)oc2c([C@@H]3O[C@H](CO)[C@@H](O)[C@H](O)[C@H]3O)c(O)cc(O)c12 has Activity below 20%. Can you tell?
Output: fulfilled

Task: I wonder whether CCOC(=O)c1ccco1 has Activity below 20%. Can you tell?
Output: fulfilled

Task: I wonder whether C/C=C/C(=O)C1=C(C)C=CCC1(C)C has Activity below 20%. Can you tell?
Output: fulfilled

Task: I wonder whether CCCCCC(=O)OCCC(C)C has Activity below 20%. Can you tell?
Output: fulfilled

Task: I wonder whether CCCCCC(=O)OCC(C)C has Activity below 20%. Can you tell?
Output: not fulfilled

Task: I wonder whether COc1cc(C2OCC3C(c4cc(OC)c(O)c(OC)c4)OCC23)cc(OC)c1O (stereo unspecified) has Activity below 20%. Can you tell?
Output: not fulfilled

Task: I wonder whether O=c1ccn([C@@H]2O[C@H](CO)[C@@H](O)[C@H]2O)c(=O)[nH]1 has Activity below 20%. Can you tell?
Output: fulfilled

Task: I wonder whether CCCCCCCCCC(=O)OC has Activity below 20%. Can you tell?
Output: fulfilled

Task: I wonder whether OC[C@H]1O[C@H](O[C@H]2[C@H](O)[C@@H](O)[C@@H](O[C@H]3[C@H](O)[C@@H](O)C(O)O[C@@H]3CO)O[C@@H]2CO)[C@H](O)[C@@H](O)[C@@H]1O (stereo partly specified) has Activity below 20%. Can you tell?
Output: fulfilled

Task: I wonder whether Oc1cc(O)c2c(c1)O[C@H](c1ccc(O)c(O)c1)[C@H](O)[C@H]2c1c(O)cc(O)c2c1O[C@H](c1ccc(O)c(O)c1)[C@H](O)C2 has Activity below 20%. Can you tell?
Output: not fulfilled

====

# target_or_system: Transient receptor potential cation channel subfamily A member 1 (Homo sapiens)
# method_notes: Agonist activity at TRPA1 (unknown origin) at 1000 uM relative to AITC
Classify by measured Activity: MET if it is equal to or exceeds 20%, NOT MET if it is smaller.

Task: Quick check: does CCCCCCCCCCCCCC(=O)O have Activity greater than or equal to 20%?
Output: MET

Task: Quick check: does CCCCCCCCC(=O)OCC have Activity greater than or equal to 20%?
Output: NOT MET

Task: Quick check: does CCCCCCCC(=O)OC have Activity greater than or equal to 20%?
Output: MET

Task: Quick check: does CC(O)CO (stereo not drawn) have Activity greater than or equal to 20%?
Output: NOT MET

Task: Quick check: does CCCCCCCCCCCCCC(C)=O have Activity greater than or equal to 20%?
Output: NOT MET

Task: Quick check: does CCCCCCCCCCC(C)=O have Activity greater than or equal to 20%?
Output: NOT MET

Task: Quick check: does CCCCCCCC(=O)OCCC(C)C have Activity greater than or equal to 20%?
Output: NOT MET

Task: Quick check: does CCCCCCCCCCO have Activity greater than or equal to 20%?
Output: MET

Task: Quick check: does CCCCCCCCC(C)=O have Activity greater than or equal to 20%?
Output: NOT MET

Task: Quick check: does CCOC(=O)CC(O)(CC(=O)OCC)C(=O)OCC have Activity greater than or equal to 20%?
Output: NOT MET

Task: Quick check: does CCCCC(CC)CO (stereo not drawn) have Activity greater than or equal to 20%?
Output: MET

Task: Quick check: does CCCCCCCCCCCC(=O)OCC have Activity greater than or equal to 20%?
Output: NOT MET

Task: Quick check: does CCCCCCCC(=O)CC have Activity greater than or equal to 20%?
Output: NOT MET

Task: Quick check: does CCCCCCCCOC(=O)CCC have Activity greater than or equal to 20%?
Output: NOT MET

Task: Quick check: does O=C(O[C@H]1Cc2c(O)cc(O)cc2O[C@@H]1c1ccc(O)c(O)c1)c1cc(O)c(O)c(O)c1 have Activity greater than or equal to 20%?
Output: NOT MET

Task: Quick check: does CCCCCCCCCC(=O)OCCC(C)C have Activity greater than or equal to 20%?
Output: NOT MET

Task: Quick check: does CCCCCCCCCCCCCC(=O)OCC have Activity greater than or equal to 20%?
Output: NOT MET

Task: Quick check: does CCCCCCCC1CCC(=O)O1 (stereo not drawn) have Activity greater than or equal to 20%?
Output: MET

Task: Quick check: does CC(=O)OC(C)C have Activity greater than or equal to 20%?
Output: NOT MET

Task: Quick check: does CCCCC(CC)COC(=O)c1ccccc1O (stereo not drawn) have Activity greater than or equal to 20%?
Output: NOT MET

Task: Quick check: does CCCCCCCC(=O)OCC have Activity greater than or equal to 20%?
Output: NOT MET

Task: Quick check: does CCCCCCCOC(C)=O have Activity greater than or equal to 20%?
Output: NOT MET

Task: Quick check: does CCCCCCCCOC(C)=O have Activity greater than or equal to 20%?
Output: NOT MET

Task: Quick check: does CCCCCCCCCC(C)O (stereo not drawn) have Activity greater than or equal to 20%?
Output: NOT MET

Task: Quick check: does CCCCCCCCCCCCCCCC(=O)OC have Activity greater than or equal to 20%?
Output: NOT MET

Task: Quick check: does O=c1c(O[C@@H]2O[C@@H](CO)[C@H](O)[C@H]2O)c(-c2ccc(O)c(O)c2)oc2cc(O)cc(O)c12 have Activity greater than or equal to 20%?
Output: MET

Task: Quick check: does CCCCCCCCCC(=O)OCC have Activity greater than or equal to 20%?
Output: NOT MET

Task: Quick check: does CC(C)C(=O)OCCc1ccccc1 have Activity greater than or equal to 20%?
Output: MET

Task: Quick check: does CCCCCCCCCCCCO have Activity greater than or equal to 20%?
Output: NOT MET

Task: Quick check: does CCCCCCCCCCCC(C)=O have Activity greater than or equal to 20%?
Output: NOT MET

Task: Quick check: does CC(=O)OCC(COC(C)=O)OC(C)=O have Activity greater than or equal to 20%?
Output: NOT MET

Task: Quick check: does CCCCCCCCCC(C)=O have Activity greater than or equal to 20%?
Output: NOT MET

====

For each of the compounds below, state its Activity.
# target_or_system: Transient receptor potential cation channel subfamily A member 1 (Homo sapiens) (UniProt O75762)
# method_notes: Agonist activity at TRPA1 (unknown origin) at 1000 uM relative to AITC

Briefly, Activity measured for C[C@@H]1O[C@@H](O[C@H]2[C@H](Oc3cc(O)c4c(c3)O[C@H](c3ccc(O)cc3)CC4=O)O[C@H](CO)[C@@H](O)[C@@H]2O)[C@H](O)[C@H](O)[C@H]1O : 20%

Briefly, Activity measured for CCCCCCCCCCCO : 20%

Briefly, Activity measured for O=c1cc(-c2ccc(O)cc2)oc2cc(O[C@@H]3O[C@H](CO)[C@@H](O)[C@H](O)[C@H]3O)c([C@@H]3O[C@H](CO)[C@@H](O)[C@H](O)[C@H]3O)c(O)c12 : 20%
